- study.target: Human thrombin (Homo sapiens)
- Construct: purchased Haematologic Technologies Inc
- assay.method.text: Inhibition of the protease activity of thrombin (chromogenic substrate S-2238)
- Assay type: biochemical
- assay.setup: Table C; 3 nM thrombin, 125 μM S-2238, 10 min pre-incubation, RT
pIC50: −log10 of the molar value.
Collected pIC50 values appear next to each entry.

Cc1ccc(C(=O)n2nc(-c3cccnc3)nc2NCc2ccc(F)cc2)cc1
> 7.00
O=C(CCc1ccccc1)n1nc(-c2cccnc2)nc1NCc1ccc(F)cc1
> 7.00
O=C(c1ccccc1)n1nc(-c2ccccc2)nc1NCc1ccccc1
> 7.00
O=C(Nc1n[nH]c(-c2ccco2)n1)c1ccccc1F
< 6.00
O=S(=O)(c1ccccc1)n1nc(-c2cccnc2)nc1NCc1cccs1
< 6.00
CCC(=O)n1nc(-c2ccco2)nc1NCc1ccccc1
> 7.00
CCC(=O)n1nc(-c2cccnc2)nc1NCc1ccco1
6.00 to 7.00
COc1ccccc1C(=O)n1nc(-c2ccco2)nc1SC
> 7.00

Now turn to the next compound.
Problem: Using the record for CCCC(=O)n1nc(-c2cccnc2)nc1NCc1ccco1 , report its pIC50.
Solution: > 7.00

* * *

Entries and their IC50 values follow.
- study.target: Human thrombin (Homo sapiens)
- Construct: purchased Haematologic Technologies Inc
- assay.method.text: Inhibition of the protease activity of thrombin (chromogenic substrate S-2238)
- Type: biochemical
- assay.setup: inhibition of the protease activity of thrombin; class symbols a/b/c

Fc1ccc(CN(Cc2ccc(F)cc2)c2cc(-c3ccccn3)nn2-c2ccccc2Cl)cc1
> 1 µM
O=C(c1ccccc1Cl)n1nc(-c2ccncc2)nc1NCc1ccc(F)cc1
< 0.1 µM
COc1ccccc1C(=O)n1nc(-c2cccs2)nc1NCc1ccc(F)cc1
0.1 to 1 µM

Problem: # returns recorded IC50 (system: Human thrombin (Homo sapiens)) for COc1ccc(CNc2nc(-c3ccccn3)nn2C(=O)C(C)C)cc1
Solution: < 0.1 µM

Problem: Cool, now COc1ccc(CNc2nc(-c3ccccn3)nn2C(=O)CC(C)C)cc1
Solution: < 0.1 µM

* * *

# key: entry, value: IC50
- study.target: Human thrombin (Homo sapiens, UniProt P00734)
- Construct: purchased Haematologic Technologies Inc
- assay.method.text: Inhibition of the protease activity of thrombin (chromogenic substrate S-2238)
- Format: biochemical
- assay.setup: Table C; 3 nM thrombin, 125 μM S-2238, 10 min pre-incubation, RT

Use these answered entries as a reference point.
COc1ccccc1C(=O)n1nc(-c2ccccc2)nc1N
> 1000 nM
O=C(Nc1ccc(Cl)cc1Cl)c1n[nH]c(Cn2cncn2)n1
> 1000 nM

In the following, a different compound is considered.
Problem: Which IC50 value is on record for COC(=O)c1n[nH]c(N=Cc2cccnc2)n1 ?
Solution: > 1000 nM
